Experiment: Terminal half life in CD-1 mouse at 1 mg/kg, iv by LC-MS/MS analysis
Type: ADME, organism-based
Conditions: in vivo, read-out: beta t1/2 (converted)
property-name: half-life (min)
Give the value, in units of min, as a plain number.

# molecule, recorded-result
measured = [
    ("CC(=O)N(C)C1CCN(c2cc(F)cc(NC(=O)c3cc4c(F)ccc(C)c4[nH]3)c2)C1 (configuration not stated)", 42),
]

Now for another entry.
Request: I'd like to know its half-life. The molecule in question is Cc1ccc(F)c2cc(C(=O)N[C@@H]3CCC[C@H](N4CC[C@H](N(C)S(C)(=O)=O)C4)C3)[nH]c12
Response: 42
